# target of assay: Bcr/Abl fusion protein (Homo sapiens) (UniProt P00519+P11274)
# Sequence (P00519 whole entry, looked up, the tested form may be a part): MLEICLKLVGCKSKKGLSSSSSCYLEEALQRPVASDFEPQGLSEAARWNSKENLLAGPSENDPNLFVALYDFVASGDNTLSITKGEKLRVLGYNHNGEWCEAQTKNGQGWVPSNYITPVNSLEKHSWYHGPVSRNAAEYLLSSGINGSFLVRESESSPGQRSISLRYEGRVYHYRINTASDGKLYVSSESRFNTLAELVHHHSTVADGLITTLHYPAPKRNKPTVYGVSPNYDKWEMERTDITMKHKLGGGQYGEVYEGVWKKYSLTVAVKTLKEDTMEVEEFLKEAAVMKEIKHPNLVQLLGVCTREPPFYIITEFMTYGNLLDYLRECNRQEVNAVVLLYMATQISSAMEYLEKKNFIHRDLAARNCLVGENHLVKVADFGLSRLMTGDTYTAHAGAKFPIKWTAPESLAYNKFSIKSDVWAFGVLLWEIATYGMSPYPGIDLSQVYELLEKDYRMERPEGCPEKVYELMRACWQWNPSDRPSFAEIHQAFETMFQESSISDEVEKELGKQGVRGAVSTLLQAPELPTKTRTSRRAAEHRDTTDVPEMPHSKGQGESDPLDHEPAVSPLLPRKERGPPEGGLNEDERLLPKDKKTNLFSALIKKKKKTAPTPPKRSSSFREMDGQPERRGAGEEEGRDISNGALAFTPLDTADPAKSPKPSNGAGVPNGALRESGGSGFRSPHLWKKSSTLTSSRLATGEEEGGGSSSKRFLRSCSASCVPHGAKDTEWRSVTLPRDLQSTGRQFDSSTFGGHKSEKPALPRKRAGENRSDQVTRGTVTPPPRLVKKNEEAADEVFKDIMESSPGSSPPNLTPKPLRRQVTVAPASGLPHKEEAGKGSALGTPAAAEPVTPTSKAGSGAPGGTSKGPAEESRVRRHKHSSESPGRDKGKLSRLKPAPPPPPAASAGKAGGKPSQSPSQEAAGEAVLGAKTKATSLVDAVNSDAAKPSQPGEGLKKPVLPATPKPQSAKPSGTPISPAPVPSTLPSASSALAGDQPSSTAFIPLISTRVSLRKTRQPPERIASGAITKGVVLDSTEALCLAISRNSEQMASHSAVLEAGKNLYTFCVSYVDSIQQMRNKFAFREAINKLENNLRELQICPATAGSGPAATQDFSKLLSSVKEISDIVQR
# Sequence (P11274 whole entry, looked up, the tested form may be a part): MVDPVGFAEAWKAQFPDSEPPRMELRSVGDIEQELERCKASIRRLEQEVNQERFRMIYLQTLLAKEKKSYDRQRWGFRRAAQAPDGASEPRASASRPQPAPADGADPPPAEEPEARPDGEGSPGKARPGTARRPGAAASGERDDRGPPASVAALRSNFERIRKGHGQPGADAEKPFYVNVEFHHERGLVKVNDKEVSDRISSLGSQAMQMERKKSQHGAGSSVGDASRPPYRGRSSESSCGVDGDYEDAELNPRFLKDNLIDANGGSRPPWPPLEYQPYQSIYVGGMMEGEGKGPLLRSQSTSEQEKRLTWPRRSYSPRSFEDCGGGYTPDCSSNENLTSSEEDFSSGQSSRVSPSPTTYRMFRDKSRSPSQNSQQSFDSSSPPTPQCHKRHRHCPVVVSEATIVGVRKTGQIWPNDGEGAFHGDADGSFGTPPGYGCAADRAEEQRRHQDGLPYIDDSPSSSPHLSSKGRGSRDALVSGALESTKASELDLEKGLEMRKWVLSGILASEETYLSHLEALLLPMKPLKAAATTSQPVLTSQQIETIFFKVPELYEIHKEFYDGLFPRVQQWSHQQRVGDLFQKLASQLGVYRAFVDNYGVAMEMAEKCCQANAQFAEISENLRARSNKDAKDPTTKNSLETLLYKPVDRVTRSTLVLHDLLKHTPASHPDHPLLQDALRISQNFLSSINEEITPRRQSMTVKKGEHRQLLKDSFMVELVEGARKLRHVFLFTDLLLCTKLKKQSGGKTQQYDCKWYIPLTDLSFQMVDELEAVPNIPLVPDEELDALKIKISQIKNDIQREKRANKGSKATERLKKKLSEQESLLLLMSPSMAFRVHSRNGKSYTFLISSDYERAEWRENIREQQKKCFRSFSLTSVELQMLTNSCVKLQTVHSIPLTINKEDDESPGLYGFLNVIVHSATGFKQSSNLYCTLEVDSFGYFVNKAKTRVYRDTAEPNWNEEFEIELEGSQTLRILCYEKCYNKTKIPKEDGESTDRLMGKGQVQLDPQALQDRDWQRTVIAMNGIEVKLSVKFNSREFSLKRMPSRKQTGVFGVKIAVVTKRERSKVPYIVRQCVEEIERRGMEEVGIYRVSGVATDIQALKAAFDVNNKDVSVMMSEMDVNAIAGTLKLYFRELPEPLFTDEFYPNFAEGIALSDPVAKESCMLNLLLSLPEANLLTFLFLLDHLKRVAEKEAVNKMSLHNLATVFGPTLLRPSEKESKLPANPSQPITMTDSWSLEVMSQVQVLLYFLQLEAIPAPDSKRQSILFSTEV
# run description: Peptide phosphorylation by Bcr-Abl protein tyrosine kinase at 25 degree for 30 min in a cell-free system
# Assay type: protein assay
Peptide text beside a SMILES is read from it.
endpoint name: Activity (pM)

- compound: "CC[C@H](C)[C@H](NC(=O)[C@H](CCC(=O)O)NC(=O)[C@@H](N)CCC(=O)O)C(=O)N[C@@H](Cc1ccc(O)cc1)C(=O)N[C@@H](CC(=O)O)C(=O)N[C@@H](Cc1ccc(O)cc1)C(=O)N[C@@H](C)C(=O)N[C@@H](Cc1ccc(O)cc1)C(=O)O (H-EEIYDYAY-OH)"
  endpoint name: "Activity"
  reading unit: "pM"
  measurement: 22.4
- compound: "CC[C@H](C)[C@H](NC(=O)[C@H](CCC(=O)O)NC(=O)[C@@H](N)CCC(=O)O)C(=O)N[C@@H](Cc1ccc(O)cc1)C(=O)N[C@@H](Cc1ccc(O)cc1)C(=O)N[C@@H](Cc1ccc(O)cc1)C(=O)N[C@H](C(=O)N[C@@H](Cc1c[nH]cn1)C(=O)O)C(C)C (H-EEIYYYVH-OH)"
  endpoint name: "Activity"
  reading unit: "pM"
  measurement: 17.7
- compound: "CC[C@H](C)[C@H](NC(=O)[C@H](CCCN=C(N)N)NC(=O)[C@@H](N)CCC(=O)O)C(=O)N[C@@H](Cc1ccc(O)cc1)C(=O)N[C@@H](C)C(=O)N[C@@H](CCCN=C(N)N)C(=O)N[C@H](C(=O)N[C@@H](CCCCN)C(=O)O)[C@@H](C)O (H-ERIYARTK-OH)"
  endpoint name: "Activity"
  reading unit: "pM"
  measurement: 22.9
- compound: "CC[C@H](C)[C@H](NC(=O)[C@H](CCC(=O)O)NC(=O)[C@@H](N)CCC(=O)O)C(=O)N[C@@H](Cc1ccc(O)cc1)C(=O)N[C@@H](Cc1ccc(O)cc1)C(=O)N[C@@H](Cc1ccc(O)cc1)C(=O)N[C@@H](CCC(=O)O)C(=O)N[C@@H](CC(C)C)C(=O)O (H-EEIYYYEL-OH)"
  endpoint name: "Activity"
  reading unit: "pM"
  measurement: 4.48
- compound: "CC[C@H](C)[C@H](NC(=O)[C@H](CCC(=O)O)NC(=O)[C@H](Cc1ccc(O)cc1)NC(=O)[C@@H](NC(=O)[C@H](CC(=O)O)NC(=O)[C@@H](N)CC(=O)O)[C@@H](C)CC)C(=O)N[C@@H](Cc1ccc(O)cc1)C(=O)N[C@@H](Cc1c[nH]c2ccccc12)C(=O)O (H-DDIYEIYW-OH)"
  endpoint name: "Activity"
  reading unit: "pM"
  measurement: 4.35
- compound: "CC[C@H](C)[C@H](NC(=O)[C@H](Cc1c[nH]cn1)NC(=O)[C@@H](N)CCC(=O)O)C(=O)N[C@@H](Cc1ccc(O)cc1)C(=O)N[C@@H](Cc1c[nH]cn1)C(=O)N[C@@H](CCCN=C(N)N)C(=O)N[C@@H](Cc1c[nH]cn1)C(=O)N[C@@H](CCSC)C(=O)O (H-EHIYHRHM-OH)"
  endpoint name: "Activity"
  reading unit: "pM"
  measurement: 2.73
- compound: "CC[C@H](C)[C@H](NC(=O)[C@H](CCC(=O)O)NC(=O)[C@H](CC(=O)O)NC(=O)[C@H](Cc1ccc(O)cc1)NC(=O)[C@@H](NC(=O)[C@H](CCC(=O)O)NC(=O)[C@@H](N)CCC(=O)O)[C@@H](C)CC)C(=O)N[C@@H](Cc1ccc(O)cc1)C(=O)O (H-EEIYDEIY-OH)"
  endpoint name: "Activity"
  reading unit: "pM"
  measurement: 14.4
- compound: "CC[C@H](C)[C@H](NC(=O)[C@H](CCC(=O)O)NC(=O)[C@@H](N)Cc1ccc(O)cc1)C(=O)N[C@@H](Cc1ccc(O)cc1)C(=O)N[C@@H](CC(=O)O)C(=O)N[C@@H](Cc1ccc(O)cc1)C(=O)N[C@@H](Cc1ccc(O)cc1)C(=O)N[C@H](C(=O)O)C(C)C (H-YEIYDYYV-OH)"
  endpoint name: "Activity"
  reading unit: "pM"
  measurement: 7.89
- compound: "CC[C@H](C)[C@H](NC(=O)[C@H](Cc1ccc(O)cc1)NC(=O)[C@H](CC(=O)O)NC(=O)[C@H](Cc1ccc(O)cc1)NC(=O)[C@@H](NC(=O)[C@H](CCC(=O)O)NC(=O)[C@@H](N)Cc1ccc(O)cc1)[C@@H](C)CC)C(=O)N[C@@H](CCC(=O)O)C(=O)O (H-YEIYDYIE-OH)"
  endpoint name: "Activity"
  reading unit: "pM"
  measurement: 4.33

---

# target of assay: Tyrosine-protein kinase ABL1 (Homo sapiens)
# run description: Peptide phosphorylation by c-Abl protein tyrosine kinase at 25 degree for 30 min in a cell-free system
Peptide text beside a SMILES is read from it.
endpoint name: Activity (pmol)

- compound: "CC[C@H](C)[C@H](NC(=O)[C@H](CCC(=O)O)NC(=O)[C@@H](N)CCC(=O)O)C(=O)N[C@@H](Cc1ccc(O)cc1)C(=O)N[C@@H](CCC(=O)O)C(=O)N[C@@H](CCC(=O)O)C(=O)N1CCC[C@H]1C(=O)N[C@@H](Cc1ccc(O)cc1)C(=O)O (H-EEIYEEPY-OH)"
  endpoint name: "Activity"
  reading unit: "pmol"
  measurement: 7.56
- compound: "CC[C@H](C)[C@H](NC(=O)[C@H](CCC(=O)O)NC(=O)[C@@H](N)CCC(=O)O)C(=O)N[C@@H](Cc1ccc(O)cc1)C(=O)N[C@@H](Cc1ccc(O)cc1)C(=O)N[C@@H](Cc1ccc(O)cc1)C(=O)N[C@H](C(=O)N[C@@H](Cc1c[nH]cn1)C(=O)O)C(C)C (H-EEIYYYVH-OH)"
  endpoint name: "Activity"
  reading unit: "pmol"
  measurement: 3.37
- compound: "CC[C@H](C)[C@H](NC(=O)[C@H](CCC(=O)O)NC(=O)[C@H](CC(=O)O)NC(=O)[C@H](Cc1ccc(O)cc1)NC(=O)[C@@H](NC(=O)[C@H](CCC(=O)O)NC(=O)[C@@H](N)CCC(=O)O)[C@@H](C)CC)C(=O)N[C@@H](Cc1ccc(O)cc1)C(=O)O (H-EEIYDEIY-OH)"
  endpoint name: "Activity"
  reading unit: "pmol"
  measurement: 4.18
- compound: "CC[C@H](C)[C@H](NC(=O)[C@H](Cc1ccc(O)cc1)NC(=O)[C@H](CC(=O)O)NC(=O)[C@H](Cc1ccc(O)cc1)NC(=O)[C@@H](NC(=O)[C@H](CCC(=O)O)NC(=O)[C@@H](N)Cc1ccc(O)cc1)[C@@H](C)CC)C(=O)N[C@@H](CCC(=O)O)C(=O)O (H-YEIYDYIE-OH)"
  endpoint name: "Activity"
  reading unit: "pmol"
  measurement: 1.89
- compound: "CC[C@H](C)[C@H](NC(=O)[C@H](CCCN=C(N)N)NC(=O)[C@@H](N)CCC(=O)O)C(=O)N[C@@H](Cc1ccc(O)cc1)C(=O)N[C@@H](C)C(=O)N[C@@H](CCCN=C(N)N)C(=O)N[C@H](C(=O)N[C@@H](CCCCN)C(=O)O)[C@@H](C)O (H-ERIYARTK-OH)"
  endpoint name: "Activity"
  reading unit: "pmol"
  measurement: 3.37

---

# target of assay: Bcr/Abl fusion protein (Homo sapiens) (UniProt P00519+P11274)
# run description: Ratio of peptide phosphorylation by Bcr-Abl and c-Abl protein tyrosine kinases
# Type: protein assay
Peptide text beside a SMILES is read from it.
endpoint name: Ratio

- molecule: "CC[C@H](C)[C@H](NC(=O)[C@H](CCC(=O)O)NC(=O)[C@@H](N)CCC(=O)O)C(=O)N[C@@H](Cc1ccc(O)cc1)C(=O)N[C@@H](Cc1ccc(O)cc1)C(=O)N[C@@H](Cc1ccc(O)cc1)C(=O)N[C@@H](CCC(=O)O)C(=O)N[C@@H](CC(C)C)C(=O)O (H-EEIYYYEL-OH)"
  target of assay: "Bcr/Abl fusion protein (Homo sapiens) (UniProt P00519+P11274)"
  endpoint name: "Ratio"
  measurement: 3.52
- molecule: "CC[C@H](C)[C@H](NC(=O)[C@H](CCC(=O)O)NC(=O)[C@@H](N)CCC(=O)O)C(=O)N[C@@H](Cc1ccc(O)cc1)C(=O)N[C@@H](CC(=O)O)C(=O)N[C@@H](Cc1ccc(O)cc1)C(=O)N[C@@H](C)C(=O)N[C@@H](Cc1ccc(O)cc1)C(=O)O (H-EEIYDYAY-OH)"
  target of assay: "Bcr/Abl fusion protein (Homo sapiens) (UniProt P00519+P11274)"
  endpoint name: "Ratio"
  measurement: 3.33
- molecule: "CC[C@H](C)[C@H](NC(=O)[C@H](CCC(=O)O)NC(=O)[C@@H](N)CCC(=O)O)C(=O)N[C@@H](Cc1ccc(O)cc1)C(=O)N[C@@H](C)C(=O)N[C@@H](CCC(=O)O)C(=O)N[C@@H](Cc1c[nH]c2ccccc12)C(=O)N[C@@H](Cc1ccccc1)C(=O)O (H-EEIYAEWF-OH)"
  target of assay: "Bcr/Abl fusion protein (Homo sapiens) (UniProt P00519+P11274)"
  endpoint name: "Ratio"
  measurement: 3.98
- molecule: "CC[C@H](C)[C@H](NC(=O)[C@H](CCCN=C(N)N)NC(=O)[C@@H]1CCCN1)C(=O)N[C@@H](Cc1ccc(O)cc1)C(=O)N[C@@H](CC(=O)O)C(=O)N[C@H](C(=O)N1CCC[C@H]1C(=O)N[C@@H](Cc1ccc(O)cc1)C(=O)O)[C@@H](C)CC (H-PRIYDIPY-OH)"
  target of assay: "Bcr/Abl fusion protein (Homo sapiens) (UniProt P00519+P11274)"
  endpoint name: "Ratio"
  measurement: 5.97
- molecule: "CC[C@H](C)[C@H](NC(=O)[C@H](CCC(=O)O)NC(=O)[C@@H](N)CCC(=O)O)C(=O)N[C@@H](Cc1ccc(O)cc1)C(=O)N[C@@H](Cc1ccc(O)cc1)C(=O)N[C@@H](Cc1ccc(O)cc1)C(=O)N[C@H](C(=O)N[C@@H](Cc1c[nH]cn1)C(=O)O)C(C)C (H-EEIYYYVH-OH)"
  target of assay: "Bcr/Abl fusion protein (Homo sapiens) (UniProt P00519+P11274)"
  endpoint name: "Ratio"
  measurement: 5.24
- molecule: "CC[C@H](C)[C@H](NC(=O)[C@H](CCC(=O)O)NC(=O)[C@@H](N)CCC(=O)O)C(=O)N[C@@H](Cc1ccc(O)cc1)C(=O)N[C@@H](CCC(=O)O)C(=O)N[C@@H](CCC(=O)O)C(=O)N1CCC[C@H]1C(=O)N[C@@H](Cc1ccc(O)cc1)C(=O)O (H-EEIYEEPY-OH)"
  target of assay: "Bcr/Abl fusion protein (Homo sapiens) (UniProt P00519+P11274)"
  endpoint name: "Ratio"
  measurement: 3.38

Values from ChEMBL document CHEMBL1130941
